Biological target: Dual specificity protein kinase CLK2 (Homo sapiens) (UniProt P49760)
Sequence (P49760 whole entry, looked up): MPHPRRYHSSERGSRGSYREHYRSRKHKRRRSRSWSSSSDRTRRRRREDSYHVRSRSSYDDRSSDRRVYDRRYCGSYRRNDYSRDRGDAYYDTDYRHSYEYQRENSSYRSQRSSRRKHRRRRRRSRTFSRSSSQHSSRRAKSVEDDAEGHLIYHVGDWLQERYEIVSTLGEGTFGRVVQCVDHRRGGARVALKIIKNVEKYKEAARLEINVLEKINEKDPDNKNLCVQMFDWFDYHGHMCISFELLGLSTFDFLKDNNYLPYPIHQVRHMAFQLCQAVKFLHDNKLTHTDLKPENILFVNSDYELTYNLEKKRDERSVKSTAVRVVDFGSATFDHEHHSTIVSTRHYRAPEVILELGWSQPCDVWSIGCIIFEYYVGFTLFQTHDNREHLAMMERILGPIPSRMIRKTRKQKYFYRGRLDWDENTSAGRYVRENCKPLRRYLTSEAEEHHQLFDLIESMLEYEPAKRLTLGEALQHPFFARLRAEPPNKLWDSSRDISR
Settings: at 0.1 µM
Description: GSK_PKIS: CLK2 mean inhibition at 0.1 uM [Nanosyn]
REPORTED_ENDPOINT: inhibition (%)

| COMPOUND_STRING | EXPERIMENTAL_TARGET | REPORTED_ENDPOINT | MEASUREMENT_UNITS | VALUE_MEASURED |
| --- | --- | --- | --- | --- |
| COc1cc2c(cc1Nc1nc(Nc3cccc(F)c3C(N)=O)c3cc[nH]c3n1)N(C(=O)CN1CCN(C(C)C)CC1)CC2 | Dual specificity protein kinase CLK2 (Homo sapiens) (UniProt P49760) | inhibition | % | 6.86 |
| FC(F)(F)CNc1nccc(-c2cnn3ncccc23)n1 | Dual specificity protein kinase CLK2 (Homo sapiens) (UniProt P49760) | inhibition | % | 5.19 |
| COc1cc(Nc2ncc(-c3ccccc3)o2)cc(OC)c1 | Dual specificity protein kinase CLK2 (Homo sapiens) (UniProt P49760) | inhibition | % | 2.97 |
| NC(=O)c1ccc2c(-c3ccnc(NCCCO)n3)c(-c3ccc(F)cc3)nn2c1 | Dual specificity protein kinase CLK2 (Homo sapiens) (UniProt P49760) | inhibition | % | 2.88 |
| CS(=O)(=O)CCNCc1ccoc1-c1ccc2ncnc(Nc3ccc(OCc4ccccc4)cc3)c2c1 | Dual specificity protein kinase CLK2 (Homo sapiens) (UniProt P49760) | inhibition | % | 0.36 |
| CS(=O)(=O)CCNCc1ccc(-c2ccc3ncnc(Nc4ccc(OCc5cccc(C(F)(F)F)c5)cc4)c3c2)o1 | Dual specificity protein kinase CLK2 (Homo sapiens) (UniProt P49760) | inhibition | % | 0.99 |
| CCCNc1cccc(-n2ncc3c(N/N=C/c4ccncc4)ncnc32)c1 | Dual specificity protein kinase CLK2 (Homo sapiens) (UniProt P49760) | inhibition | % | 3.08 |
| Cn1c(-c2nonc2N)nc2cnccc21 | Dual specificity protein kinase CLK2 (Homo sapiens) (UniProt P49760) | inhibition | % | 2.9 |

###

This section presents compounds with their documented inhibition values.
Target: Ephrin type-A receptor 3 (Homo sapiens);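 note: values are mean inhibition of EPHA3, from the GSK PKIS dataset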
Sequence (whole entry): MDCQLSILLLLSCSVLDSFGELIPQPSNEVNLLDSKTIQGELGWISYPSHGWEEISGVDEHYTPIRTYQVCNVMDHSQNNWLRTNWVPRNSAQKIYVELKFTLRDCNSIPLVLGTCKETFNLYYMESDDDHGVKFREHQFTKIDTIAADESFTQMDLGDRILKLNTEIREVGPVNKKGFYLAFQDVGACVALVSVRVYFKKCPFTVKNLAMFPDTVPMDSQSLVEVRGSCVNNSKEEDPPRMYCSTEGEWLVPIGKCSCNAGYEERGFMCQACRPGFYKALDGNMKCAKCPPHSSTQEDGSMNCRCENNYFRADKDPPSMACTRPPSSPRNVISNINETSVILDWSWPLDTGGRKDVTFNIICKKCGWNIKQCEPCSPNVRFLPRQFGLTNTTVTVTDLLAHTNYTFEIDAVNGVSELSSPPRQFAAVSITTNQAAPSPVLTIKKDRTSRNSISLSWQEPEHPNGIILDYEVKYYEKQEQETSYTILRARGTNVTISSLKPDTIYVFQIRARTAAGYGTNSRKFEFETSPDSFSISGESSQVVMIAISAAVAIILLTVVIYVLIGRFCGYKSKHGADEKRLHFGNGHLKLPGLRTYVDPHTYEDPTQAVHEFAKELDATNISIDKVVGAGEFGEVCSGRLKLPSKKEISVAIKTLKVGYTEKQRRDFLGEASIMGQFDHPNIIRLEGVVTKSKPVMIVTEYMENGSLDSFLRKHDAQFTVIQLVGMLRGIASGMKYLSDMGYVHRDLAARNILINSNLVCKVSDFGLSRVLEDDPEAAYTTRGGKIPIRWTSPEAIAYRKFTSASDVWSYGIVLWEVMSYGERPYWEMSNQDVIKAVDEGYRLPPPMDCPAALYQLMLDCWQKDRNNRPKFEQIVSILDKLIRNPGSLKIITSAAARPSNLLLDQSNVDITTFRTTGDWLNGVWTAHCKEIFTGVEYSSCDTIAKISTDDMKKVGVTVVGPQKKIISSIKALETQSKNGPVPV
Conditions: at 0.1 µM

| COMPOUND_STRING | inhibition [%] |
| --- | --- |
| CS(=O)(=O)CCNCc1ccoc1-c1ccc2ncnc(Nc3ccc(OCc4ccccc4)cc3)c2c1 | 0.44 |
| COc1cc(N2CCN(C(C)C)CC2)ccc1Nc1nc(Nc2cccc3ncccc23)c2cc[nH]c2n1 | 0.15 |
| COc1cc(N2CCN(C(C)C)CC2)ccc1Nc1nc(Nc2cccc(F)c2C(=O)O)c2cc[nH]c2n1 | 2.98 |
| CCN1CCC(C(=O)Nc2n[nH]c3nnc(-c4cccc(F)c4F)cc23)CC1 | -0.58 |
| CN1CCC(n2cnc(-c3ccc(F)cc3)c2-c2ccnc(NCCO)n2)CC1 | 5.3 |
| FC(F)(F)CNc1nccc(-c2cnn3ncccc23)n1 | 3.4 |
| N#Cc1ccc2c(-c3ccnc(NC4CC4)n3)c(-c3ccc(F)cc3)nn2c1 | 1.29 |
| Cc1cc(O)cc(C)c1/C=C/c1cncc(C(=O)OC(C)(C)C)c1 | 11.2 |
| Cc1cc(O)cc(C)c1/C=C/c1cncc(C(N)=O)c1 | 5.13 |
| c1cnn2ncc(-c3ccnc(NCCCN4CCOCC4)n3)c2c1 | 2.9 |
| CCS(=O)(=O)c1ccc(OC)c(Nc2ncc(-c3cccc(C(C)=O)c3)o2)c1 | 3.51 |
| COc1ccc(-c2nn3ncccc3c2-c2ccnc(Nc3ccc(F)c(F)c3)n2)cc1 | 3.49 |
| COc1ccc2ncn(-c3cc(O[C@H](C)c4ccccc4C(F)(F)F)c(C(N)=O)s3)c2c1 | 0.39 |
| OCCCNc1nccc(-c2c(-c3ccc(F)cc3)nn3cc(C(F)(F)F)ccc23)n1 | 2.86 |
| CS(=O)(=O)CCNCc1ccc(-c2ccc3ncnc(Nc4ccc(OCc5ccccc5)cc4)c3c2)o1 | 5.21 |
| CS(=O)(=O)Nc1ccc(-c2cc(-c3ccccc3)cc(C(N)=O)c2N)cc1 | 0.48 |
| Cc1ccc(-c2cc3c(NC(=O)C4CC4)ncnc3o2)cc1 | 3.73 |
| CC(C)c1ccc(-c2cc(-c3c[nH]nc3-c3ccccn3)ccn2)cc1 | 2.58 |
| CN(c1ccc(NC(=O)NCCN2CCOCC2)cc1)c1ccnc(Nc2ccc(CS(C)(=O)=O)cc2)n1 | 4.27 |
| COC(=O)Nc1nc2cc(Oc3ccc(NC(=O)Nc4ccccc4)cc3)ccc2[nH]1 | 4.93 |
| CNC(=O)c1ncccc1Nc1nc(Nc2cc3c(cc2OC)CCCN3C(=O)CN(C)C)nc2[nH]ccc12 | 5.44 |
| COC(=O)Nc1nc2ccc(Oc3ccc(NC(=O)Nc4cc(C(F)(F)F)ccc4F)cc3)cc2s1 | 51.3 |
| NC(=O)c1ccc2c(-c3ccnc(NCCCO)n3)c(-c3ccc(F)cc3)nn2c1 | 5.24 |

###

Target: RAC-alpha serine/threonine-protein kinase (Homo sapiens);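 note: reported values are mean inhibition figures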
Settings: at 0.1 µM

| COMPOUND_STRING | inhibition |
| --- | --- |
| COc1ccccc1-c1cc(/C=C2\C(=O)Nc3ncc(Br)cc32)cc(Br)c1O | 0.67% |
| N#Cc1cccc(Nc2ncc(-c3ccccc3)o2)c1 | 0% |
| COc1c(C(N)=O)cc(-c2ccc(Cl)cc2)cc1-c1ccc(S(N)(=O)=O)cc1 | 1.15% |
| Cc1ccc(-c2cc3c(NC(=O)C4CC4)ncnc3o2)cc1 | 0.96% |
| O=C1Nc2ccccc2/C1=C1\CCc2cc(O)ccc21 | 1.29% |
| COc1cc2c(cc1Nc1nc(Nc3cccc(F)c3C(N)=O)c3cc[nH]c3n1)N(C(=O)CN1CCN(C(C)C)CC1)CC2 | 0.64% |
| O=C(O[C@H]1CN[C@H](C#Cc2cc3ncnc(Nc4ccc5c(cnn5Cc5ccccc5)c4)c3s2)C1)N1CCOCC1 | -0.59% |
| CNC(=O)c1ncccc1Nc1nc(Nc2cc3c(cc2OC)CCCN3C(=O)CN(C)C)nc2[nH]ccc12 | 1.11% |

###

Biological target: Serine/threonine-protein kinase PAK 5 (Homo sapiens) (UniProt Q9P286);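 note: values are mean percent inhibition of PAK5 from a kinase inhibitor set screen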
Sequence (Q9P286 whole entry, looked up): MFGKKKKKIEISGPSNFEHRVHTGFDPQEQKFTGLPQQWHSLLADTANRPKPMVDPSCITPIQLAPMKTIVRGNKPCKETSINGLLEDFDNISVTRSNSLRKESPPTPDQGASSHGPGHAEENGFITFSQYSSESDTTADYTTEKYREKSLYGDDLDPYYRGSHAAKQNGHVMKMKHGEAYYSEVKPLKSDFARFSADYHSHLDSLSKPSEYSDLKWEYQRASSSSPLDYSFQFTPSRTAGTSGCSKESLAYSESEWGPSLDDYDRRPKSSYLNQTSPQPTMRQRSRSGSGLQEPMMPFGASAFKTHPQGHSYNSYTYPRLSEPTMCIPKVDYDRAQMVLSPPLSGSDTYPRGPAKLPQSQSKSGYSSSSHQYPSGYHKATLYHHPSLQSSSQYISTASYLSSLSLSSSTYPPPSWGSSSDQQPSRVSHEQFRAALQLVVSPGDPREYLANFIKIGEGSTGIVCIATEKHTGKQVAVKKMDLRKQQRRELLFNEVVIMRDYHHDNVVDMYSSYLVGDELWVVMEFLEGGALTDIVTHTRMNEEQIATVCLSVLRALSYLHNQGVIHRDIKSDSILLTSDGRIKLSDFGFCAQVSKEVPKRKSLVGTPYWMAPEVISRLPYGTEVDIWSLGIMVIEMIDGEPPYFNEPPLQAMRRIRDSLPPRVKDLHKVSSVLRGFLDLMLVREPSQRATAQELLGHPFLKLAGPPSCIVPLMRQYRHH
Details: at 0.1 µM
REPORTED_ENDPOINT: inhibition (%)

| COMPOUND_STRING | EXPERIMENTAL_TARGET | REPORTED_ENDPOINT | VALUE_MEASURED |
| --- | --- | --- | --- |
| c1ccc(-c2n[nH]cc2-c2ccnc(-c3ccc(OCCn4ccnc4)cc3)c2)nc1 | Serine/threonine-protein kinase PAK 5 (Homo sapiens) (UniProt Q9P286) | inhibition | -0.74 |
| N#Cc1ccc2c(-c3ccnc(NC4CC4)n3)c(-c3ccc(F)cc3)nn2c1 | Serine/threonine-protein kinase PAK 5 (Homo sapiens) (UniProt Q9P286) | inhibition | 1.73 |
| CCn1c(-c2nonc2N)nc2cncc(C(=O)NCCNC)c21 | Serine/threonine-protein kinase PAK 5 (Homo sapiens) (UniProt Q9P286) | inhibition | 3.97 |
| Cc1nnc(-c2cccc(-c3ccc(C(=O)NCC4CC4)cc3)c2)o1 | Serine/threonine-protein kinase PAK 5 (Homo sapiens) (UniProt Q9P286) | inhibition | 4.12 |
| O=C1Nc2ccccc2/C1=C1\CCc2cc(O)ccc21 | Serine/threonine-protein kinase PAK 5 (Homo sapiens) (UniProt Q9P286) | inhibition | 0.23 |
| CCS(=O)(=O)c1ccc(OC)c(Nc2ncc(-c3cccc(C(C)=O)c3)o2)c1 | Serine/threonine-protein kinase PAK 5 (Homo sapiens) (UniProt Q9P286) | inhibition | 7.26 |
| COc1ccc(-c2nn3ncccc3c2-c2ccnc(Nc3ccc(F)c(F)c3)n2)cc1 | Serine/threonine-protein kinase PAK 5 (Homo sapiens) (UniProt Q9P286) | inhibition | 3.31 |
| O=C(O[C@H]1CN[C@H](C#Cc2cc3ncnc(Nc4ccc5c(ccn5Cc5cc(F)ccc5F)c4)c3s2)C1)N1CCOCC1 | Serine/threonine-protein kinase PAK 5 (Homo sapiens) (UniProt Q9P286) | inhibition | -0.09 |
| NC(=O)c1ccc2c(-c3ccnc(NCCCO)n3)c(-c3ccc(F)cc3)nn2c1 | Serine/threonine-protein kinase PAK 5 (Homo sapiens) (UniProt Q9P286) | inhibition | 0.64 |
| O=C(O[C@H]1CN[C@H](C#Cc2cc3ncnc(Nc4ccc(OCc5cccc(F)c5)c(Cl)c4)c3s2)C1)N1CCOCC1 | Serine/threonine-protein kinase PAK 5 (Homo sapiens) (UniProt Q9P286) | inhibition | 6.46 |
| O=C(O[C@H]1CN[C@H](C#Cc2cc3ncnc(Nc4ccc5c(cnn5Cc5ccccc5)c4)c3s2)C1)N1CCOCC1 | Serine/threonine-protein kinase PAK 5 (Homo sapiens) (UniProt Q9P286) | inhibition | -0.12 |
| CN1CCC(n2cnc(-c3ccc(F)cc3)c2-c2ccnc(NCCO)n2)CC1 | Serine/threonine-protein kinase PAK 5 (Homo sapiens) (UniProt Q9P286) | inhibition | 0.7 |
| COc1ccccc1-c1cc(/C=C2\C(=O)Nc3ncc(Br)cc32)cc(Br)c1O | Serine/threonine-protein kinase PAK 5 (Homo sapiens) (UniProt Q9P286) | inhibition | 0.29 |
| Cc1cc(O)cc(C)c1/C=C/c1cncc(C(N)=O)c1 | Serine/threonine-protein kinase PAK 5 (Homo sapiens) (UniProt Q9P286) | inhibition | 9.11 |
| CS(=O)(=O)Nc1ccc(-c2ccc3c(NC(=O)C4CC4)n[nH]c3c2)cc1 | Serine/threonine-protein kinase PAK 5 (Homo sapiens) (UniProt Q9P286) | inhibition | -0.3 |
| Cc1ccc(-c2cc3c(NC(=O)C4CC4)ncnc3o2)cc1 | Serine/threonine-protein kinase PAK 5 (Homo sapiens) (UniProt Q9P286) | inhibition | 4.59 |
| COc1cc(N2CCN(C(C)C)CC2)ccc1Nc1nc(Nc2cccc(F)c2C(=O)O)c2cc[nH]c2n1 | Serine/threonine-protein kinase PAK 5 (Homo sapiens) (UniProt Q9P286) | inhibition | 3.7 |
| Cc1cc(O)cc(C)c1/C=C/c1cncc(C(=O)OC(C)(C)C)c1 | Serine/threonine-protein kinase PAK 5 (Homo sapiens) (UniProt Q9P286) | inhibition | 0.52 |
| NS(=O)(=O)c1ccc(N/N=C2\C(=O)Nc3cccc(CCc4ccncc4)c32)cc1 | Serine/threonine-protein kinase PAK 5 (Homo sapiens) (UniProt Q9P286) | inhibition | 1.07 |
| OCCCNc1nccc(-c2c(-c3ccc(F)cc3)nn3cc(C(F)(F)F)ccc23)n1 | Serine/threonine-protein kinase PAK 5 (Homo sapiens) (UniProt Q9P286) | inhibition | -4.85 |
| COc1cccc(Nc2nccc(-c3cnn4ncccc34)n2)c1 | Serine/threonine-protein kinase PAK 5 (Homo sapiens) (UniProt Q9P286) | inhibition | 8.25 |
| FC(F)(F)CNc1nccc(-c2cnn3ncccc23)n1 | Serine/threonine-protein kinase PAK 5 (Homo sapiens) (UniProt Q9P286) | inhibition | 1.55 |
| COc1c(C(N)=O)cc(-c2ccc(Cl)cc2)cc1-c1ccc(S(N)(=O)=O)cc1 | Serine/threonine-protein kinase PAK 5 (Homo sapiens) (UniProt Q9P286) | inhibition | 6.72 |
